src = patent US20110166206A1

Test system: PS1 NTF
PROTOCOL NOTES: Proteasome inhibitor treatment of PS1 inducible cells, PS1 NTF immunoblot
Assay type: cell-based
EXPERIMENTAL CONDITIONS: 16 h treatment
Square brackets hold non-standard residues; d marks the D form. Peptide text beside a SMILES is read from it. * marks the point of attachment. Nle = CCCC[C@H](N)C(=O)O; Cbz = O=C(OCc1ccccc1)*
MEASURED ENDPOINT: PS1 NTF levels

Record excerpt, results attached:
compound=CC(C)[C@H](O)[C@@]12NC(=O)[C@H](C)[C@@H]1OC2=O result=reduced
compound="CC(C)C[C@@H](C=O)NC(=O)[C@H](CC(C)C)NC(=O)[C@H](CC(C)C)NC(=O)OCc1ccccc1 [MG132] (Cbz-Leu-Leu-Leu-aldehyde)" result=reduced
compound=CC(C)C[C@H](NC(=O)[C@H](CC(C)C)NC(=O)[C@H](CC(C)C)NC(=O)OCc1ccccc1)B(O)O result=reduced
compound="CCCC[C@@H](C=O)NC(=O)[C@H](CC(C)C)NC(=O)[C@H](CC(C)C)NC(C)=O [ALLN, N-Acetyl-Leu-Leu-Nle-CHO] (Ac-Leu-Leu-[Nle]-aldehyde)" result=reduced

Exercise: Please provide the recorded PS1 NTF levels for CC[C@H](C)[C@H](NC(=O)[C@H]([C@@H](C)CC)N(C)C(C)=O)C(=O)N[C@H](C(=O)N[C@@H](CC(C)C)C(=O)[C@@]1(C)CO1)[C@@H](C)O , tested on PS1 NTF.
Key: reduced
